Assay: Antifungal activity against Histoplasma capsulatum G217B ATCC 26032 assessed as inhibition of visible growth after 5 days
Type: functional
One threshold, 1 µM, splits the recorded MIC50 values: lower ones are yes, equal or higher ones are no.

> print(dat)
                                    compound  category
 1         Cc1cccc(Cc2cnc(NC(=O)C3CCC3)s2)c1        no
 2     O=C(CCC1CCCCC1)Nc1ncc(Cc2ccc(F)cc2)s1        no
 3        O=C(CCC1CCCCC1)Nc1ncc(CC2CCCCC2)s1       yes
 4  O=C(Nc1nc(C23CC4CC(CC(C4)C2)C3)cs1)C1CCCC1        no
 5   O=C(CC1CCCCC1)Nc1ncc(Cc2cccc3ccccc23)s1       yes
 6  O=C(Nc1nc(C23CC4CC(CC(C4)C2)C3)cs1)c1ccccc1        no
 7           O=C(Nc1ncc(-c2ccccc2)s1)C1CCCC1        no
 8    O=C(Nc1ncc(Cc2ccc3ccccc3c2)s1)c1ccccc1        no
 9          O=C(Nc1ncc(Cc2ccccc2)s1)c1ccccc1        no
10         O=C(CC1CCCCC1)Nc1ncc(Cc2ccccc2)s1       yes
11    O=C(CCC1CCCCC1)Nc1ncc(Cc2cccc(Cl)c2)s1        no
12       CN1CCC(C(=O)Nc2ncc(Cc3ccccc3)s2)CC1        no
13  O=C(CCC1CCCCC1)Nc1ncc(Cc2ccc3ccccc3c2)s1        no
14             CC(C)C(=O)Nc1ncc(Cc2ccccc2)s1        no
15        O=C(CCC1CCCCC1)Nc1ncc(-c2ccccc2)s1        no
16          O=C(Nc1ncc(CC2CCCCC2)s1)C1CCCCC1       yes
17    O=C(Nc1ncc(Cc2ccc3ccccc3c2)s1)C1CCCCC1        no
18  NC(=O)c1cc(-c2ccccc2)sc1NC(=O)c1ccc2c(c1)OCCO2        no
19          O=C(Nc1ncc(Cc2ccccc2)s1)C1CCSCC1        no
20    O=C(Nc1ncc(Cc2cccc3ccccc23)s1)C1CCCCC1       yes
21  COc1ccc(Cc2cnc(NC(=O)/C=C/c3ccco3)s2)cc1        no
22          O=C(Nc1ncc(Cc2ccccc2)s1)C1CCOCC1        no
23          O=C(Nc1ncc(Cc2ccccc2)s1)C1CCCCC1        no
24       CC(C)C(=O)Nc1ncc(Cc2cccc3ccccc23)s1        no
25  CC(C)C(=O)Nc1nc(C23CC4CC(CC(C4)C2)C3)cs1        no
26        O=C(Nc1ncc(Cc2ccc(F)cc2)s1)C1CCCC1        no
27           O=C(Nc1nc(-c2ccccc2)cs1)C1CCCC1        no
28         O=C(CC1CCCCC1)Nc1ncc(-c2ccccc2)s1        no
29  O=C(Nc1ncc(Cc2ccccc2)s1)c1cnc(-c2cccs2)s1        no
30          O=C(Nc1ncc(Cc2ccccc2)s1)N1CCOCC1        no
31  O=C(Nc1ncc(Cc2ccccc2)s1)C1COc2ccccc2C1 (centres undefined)        no
32     O=C(/C=C/C1CCCCC1)Nc1ncc(Cc2ccccc2)s1        no
33  O=C(Nc1ncc(Cc2ccccc2)s1)C12CC3CC(CC(C3)C1)C2        no
34          O=C(Nc1ncc(CC2CCCCC2)s1)c1ccccc1        no
35  O=C(CCC1CCCCC1)Nc1nc(C23CC4CC(CC(C4)C2)C3)cs1        no
36    O=C(Nc1ncc(Cc2cccc3ccccc23)s1)c1ccccc1        no
37             CC(C)C(=O)Nc1ncc(CC2CCCCC2)s1        no
38    O=C(Nc1ncc(Cc2cccc3ccccc23)s1)C(F)(F)F        no
39  O=C(Nc1ncc(CC2CCCCC2)s1)C12CC3CC(CC(C3)C1)C2        no
40  O=C(CCC1CCCCC1)Nc1ncc(Cc2cccc3ccccc23)s1       yes
41          O=C(Nc1ncc(Cc2ccccc2)s1)C(F)(F)F        no
42  O=C(CCC1CCCCC1)Nc1ncc(Cc2cccc(C(F)(F)F)c2)s1        no
43  CC(C)(C)OC(=O)Nc1ncc(C(O)c2ccccc2)s1 (centres undefined)        no
44        O=C(CCC1CCCCC1)Nc1nnc(Cc2ccccc2)s1        no
45       O=C(Nc1ncc(Cc2ccc(F)cc2)s1)C1CCCCC1        no
46     O=C(Nc1ncc(Cc2cccc3ccccc23)s1)C1CCCC1       yes
47     CN(C(=O)CCC1CCCCC1)c1ncc(Cc2ccccc2)s1        no
48        O=C(CCC1CCCCC1)Nc1ncc(Cc2ccccc2)s1       yes
